This collection of values is drawn from PubChem BioAssay (NCI).

system: COLO 205 colon; test: NCI tumour cell line growth inhibition, 48 h; in the data active means GI50 below about 0.43 µM; inactive means the rest
Reply using exactly one outcome from active, inactive

- C=C1C(=O)O[C@H]2[C@H]1CC/C(COC(=O)NCc1cccc(OC)c1)=C\CC[C@@]1(C)O[C@@H]21: inactive
- c1cc(-c2cnn3nc(N4CCOCC4)ccc23)nc(NC2CC2)n1: inactive
- CC1(C)CC(O)CCCCCCOc2c(CN)cccc2NC(=O)c2nc(cnc2N)-c2ccc(cc2)S1(=O)=O (centres undefined): active

Problem: For O=C(Nn1c2c(sc1=NC1CC1)C(=O)c1ccccc1C2=O)c1cc2ccc1CCc1ccc(cc1)CC2 , which call appears in the assay record?
Solution: inactive

====

# key: entry, value: TGI
system: OVCAR-4 ovarian; experiment: NCI tumour cell line growth inhibition, 48 h
Where a SMILES comes first, the peptide text is derived from it. [ ]: non-standard residue; d: D form. The star is where a group is joined. X28 = COC1=CC(=O)N(C(=O)[C@@H](O*)C(C)C)[C@H]1Cc1ccccc1; NMeL = CN[C@@H](CC(C)C)C(=O)O; Cbz = O=C(OCc1ccccc1)*

Take a look at these entries with their results.
• CC[C@@]1(O)C(=O)OCc2c1cc1n(c2=O)Cc2c-1nc1ccccc1c2/C=N\NC(=O)C(N)=O = > 100 µM
• CC1(C)CC(=O)C2=C(C1)N(c1ccccc1)C1(O)C=CC(=O)C3=C(O)c4ccccc4C(=O)C321 (stereo not drawn) = 43.9 µM
• CCN1CCN(c2cc(C)nc(NCc3cc(Nc4ccnc5cc(Cl)ccc45)ccc3F)n2)CC1 = > 100 µM
• CCCCCCCCCCCCCCCCCCOCC1(COP(=O)([O-])OCC[N+](C)(C)C)CCCO1 (stereo not drawn) = 8.38 µM
• CCC(=O)n1c(=O)n(-c2ccc([N+](=O)[O-])cc2)c(=O)n1C(=O)CC = > 100 µM
• N#CCCCCC12C3C(=O)N(c4ccccc4)C(=O)C3ON1O[C@@H]1C(=O)N(c3ccccc3)C(=O)[C@@H]12 (stereo partly drawn) = > 100 µM

Problem: Looking for the measured TGI of COC(=O)Nc1nc2ccc(NS(=O)(=O)c3ccc(F)cc3)cc2[nH]1 , can you help?
Solution: > 100 µM

Problem: Looking for the measured TGI of COC1=CC(=O)N(C(=O)[C@@H](OC(=O)[C@@H]2CCCN2C(=O)[C@@H]2CCCN2C(=O)[C@H](CC(C)C)N(C)C(=O)[C@@H](NC(=O)[C@@H](NC(=O)OCc2ccccc2)C(C)C)C(C)C)C(C)C)[C@H]1Cc1ccccc1 (Cbz-VV[NMeL]PP-X28) , can you help?
Solution: > 100 µM

Problem: Looking for the measured TGI of C[C@@H]1CCC2[C@@H](C)[C@H](OC(=O)CCC(=O)NCCNC(=O)Cc3cc(=O)oc4cc(N(C)C)ccc34)O[C@@H]3O[C@]4(C)CC[C@@H]1C23OO4 (stereo partly drawn) , can you help?
Solution: > 100 µM

Problem: Looking for the measured TGI of O=C(O)C1=C(Cl)c2ccccc2S1(=O)=O , can you help?
Solution: > 100 µM

Problem: Looking for the measured TGI of Cn1c2cc(Cl)ccc2c2ccc3c(c21)C(=O)C=CC3=O , can you help?
Solution: 52.3 µM

====

# key: entry, value: TGI
test system: SK-MEL-28 melanoma; experiment: NCI tumour cell line growth inhibition, 48 h
Give the number; µM is assumed, so skip it.

* COc1cc(C(=O)OC2CC(C)=CC[C@@]3(C)CC[C@](O)(C(C)C)C23)ccc1O (stereo partly specified) | 60.2

Problem: Looking for the measured TGI of OCCCCC#Cc1ccccc1C#Cc1cccs1 , can you help?
Solution: 31.1

Problem: Looking for the measured TGI of CCC(C)N1CN(c2ccccc2)C2(CCN(CCCC(=O)c3ccc(F)cc3)CC2)C1=O (stereo unspecified) , can you help?
Solution: 32.1

Problem: Looking for the measured TGI of CN(C)CCN1C(=O)c2cccc3c(-c4ccc5ncn(C6CCCCC6)c5c4)ccc(c23)C1=O , can you help?
Solution: 5.66

Problem: Looking for the measured TGI of CC1(C)CC(=O)C2=C(C1)N(c1ccccc1)C1(O)C=CC(=O)C3=C(O)c4ccccc4C(=O)C321 (stereo unspecified) , can you help?
Solution: 39.3

====

system: TK-10 renal; assay: NCI tumour cell line growth inhibition, 48 h; in the data active = GI50 below about 0.43 µM; inactive = the rest
Reply using exactly one outcome from T = active, F = inactive

Problem: For OCCCCC#Cc1ccccc1C#Cc1cccs1 , which call appears in the assay record?
Solution: F

Problem: For COc1ccc2nc(C3=CN(C4OC(CO)C(O)C(O)C4O)C4C=CC=CC34)sc2c1 (centres undefined) , which call appears in the assay record?
Solution: F

Problem: For COc1cc(/C=N/O)nc(-c2ccccn2)c1 , which call appears in the assay record?
Solution: T

Problem: For CO[C@H]1/C=C/C[C@H](C)[C@@H](C)S(=O)(=O)NC(=O)c2ccc3c(c2)N(C[C@@H]2CC[C@H]21)C[C@@]1(CCCc2cc(Cl)ccc21)CO3 , which call appears in the assay record?
Solution: F

====

test system: LOX IMVI melanoma; assay: NCI tumour cell line growth inhibition, 48 h
measured.attribute: TGI

Take a look at these entries with their results.
• Nc1nc(SCc2ccccc2[N+](=O)[O-])c2[nH]cnc2n1 = > 100 µM
• OCCCCC#Cc1ccccc1C#Cc1cccs1 = 26.8 µM
• Cc1ccc(C(=O)NC(C)C)cc1N=NN(C)C = > 100 µM

Problem: Looking for the measured TGI of CN(C)C(=O)CO/N=C1/C(c2c(O)[nH]c3ccccc23)=Nc2ccccc21 , can you help?
Solution: > 100 µM

Problem: Looking for the measured TGI of CCCCCC/C=C/CCCCCCCc1cccc(O)c1C(=O)O , can you help?
Solution: > 100 µM

Problem: Looking for the measured TGI of [N-]=[N+]=NC(c1cn(C2CC(O)C(CO)O2)c(=O)[nH]c1=O)C(I)I (stereo unspecified) , can you help?
Solution: > 100 µM

Problem: Looking for the measured TGI of O=C1C(Cl)=C(Nc2ccc3c(c2NC2=C(Cl)C(=O)c4ccccc4C2=O)C(=O)c2ccccc2C3=O)C(=O)c2ccccc21 , can you help?
Solution: 10.4 µM

====

test system: UACC-62 melanoma; assay: NCI tumour cell line growth inhibition, 48 h; in the data active = GI50 below about 0.43 µM; inactive = the rest
Reply using exactly one outcome from active, inactive

• Cc1sc2c(c1C)C(c1ccc(Cl)cc1)=N[C@@H](CC(=O)Nc1ccc(O)cc1)c1nnc(C)n1-2 = active
• OCCCCC#Cc1ccccc1C#Cc1cccs1 = inactive
• COc1cc2c(cc1-c1c(C)noc1C)ncc1[nH]c(=O)n([C@H](C)c3ccccn3)c12 = active
• COc1ccc(Cn2cc3c(c2-c2ccccc2)CCc2cncnc2-3)cc1 = inactive
• COC(=O)C1=C2CO[C@@H]3C[C@H]4C(C)(C)CCC[C@]4(C)C(=CC1)[C@]23C = inactive

Problem: For NCCCn1c2c(c3ccc([N+](=O)[O-])cc3c1=O)C(=O)c1cc(Cl)ccc1-2 , which call appears in the assay record?
Solution: active

Problem: For c1cc(-c2cnn3nc(N4CCOCC4)ccc23)nc(NC2CC2)n1 , which call appears in the assay record?
Solution: inactive

====

# key: entry, value: TGI
tested on: SNB-19 CNS; experiment: NCI tumour cell line growth inhibition, 48 h

Take a look at these entries with their results.
- CCC(=O)n1c(=O)n(-c2ccc([N+](=O)[O-])cc2)c(=O)n1C(=O)CC: > 100 µM
- CN(C(=O)C1CC1)C1C2CN3CCC(O2)C13 (stereo not given): > 100 µM
- Cc1sc2c(c1C)C(c1ccc(Cl)cc1)=N[C@@H](CC(=O)Nc1ccc(O)cc1)c1nnc(C)n1-2: 31.3 µM

Problem: Hi! What's the reported TGI for O=C(Nc1cc([N+](=O)[O-])cc([N+](=O)[O-])c1)OC1C2CCC1C1OC1C2 (stereo not given) on SNB-19 CNS?
Solution: > 50 µM

Problem: Hi! What's the reported TGI for COc1ccc(NCc2c(O)ccc3ccccc23)cc1 on SNB-19 CNS?
Solution: > 100 µM

Problem: Hi! What's the reported TGI for N/C(=N\N=C/c1cc(Cl)cc(Cl)c1O)NO on SNB-19 CNS?
Solution: > 53.9 µM

Problem: Hi! What's the reported TGI for C[C@@H]1CCC2[C@@H](C)[C@H](OC(=O)CCC(=O)NCCNC(=O)Cc3cc(=O)oc4cc(N(C)C)ccc34)O[C@@H]3O[C@]4(C)CC[C@@H]1C23OO4 (stereo not given in full) on SNB-19 CNS?
Solution: > 100 µM

Problem: Hi! What's the reported TGI for C=C(C)C(=O)N1c2ccc(OC)cc2CC1C(=O)OCC (stereo not given) on SNB-19 CNS?
Solution: > 100 µM

Problem: Hi! What's the reported TGI for Cc1cc(Cl)ccc1Nc1nc(C(F)(F)F)ccc1C(=O)N/N=C/c1ccc(N(C)C)cc1 on SNB-19 CNS?
Solution: > 100 µM

Problem: Hi! What's the reported TGI for COc1cc(OC)c(NC2=NCCO2)cc1Cl on SNB-19 CNS?
Solution: > 100 µM
